Parameter: Ki. Scope: all listed entries.
system.name: UniProtKB P31645
Sequence (P31645 whole entry, species assumed): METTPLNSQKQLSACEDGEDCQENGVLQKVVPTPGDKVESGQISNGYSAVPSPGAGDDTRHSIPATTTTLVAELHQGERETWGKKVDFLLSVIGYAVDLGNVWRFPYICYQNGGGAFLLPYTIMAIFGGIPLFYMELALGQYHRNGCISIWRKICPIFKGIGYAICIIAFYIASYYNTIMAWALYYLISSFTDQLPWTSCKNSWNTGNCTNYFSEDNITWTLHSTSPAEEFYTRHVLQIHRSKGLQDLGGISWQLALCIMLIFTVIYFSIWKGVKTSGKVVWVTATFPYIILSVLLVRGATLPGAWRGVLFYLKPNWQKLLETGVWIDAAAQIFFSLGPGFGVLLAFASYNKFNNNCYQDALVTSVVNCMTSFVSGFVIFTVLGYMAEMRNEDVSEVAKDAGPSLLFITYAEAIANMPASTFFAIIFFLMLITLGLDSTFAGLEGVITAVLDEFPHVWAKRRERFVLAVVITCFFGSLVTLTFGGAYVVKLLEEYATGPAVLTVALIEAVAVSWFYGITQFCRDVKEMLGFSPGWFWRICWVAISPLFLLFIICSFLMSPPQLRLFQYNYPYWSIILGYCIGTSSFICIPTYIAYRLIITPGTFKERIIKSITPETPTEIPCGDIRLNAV
method: Receptor binding activity, SERT
measurement.conditions: binding to SERT, methods of WO/2009/145900
Please state the figure in nM; there is no need to write the unit.

{"molecule": "CN1CCN2c3c(cccc31)[C@@H]1CN(CCCC(C)(O)c3ccc(F)cc3)CC[C@@H]12 (some centres unmarked)", "unit.text": "nM", "Ki": 520}

Req: Identify the measured Ki of COC(CCCN1CC[C@H]2[C@@H](C1)c1cccc3c1N2CCN3C)c1ccc(F)cc1 (some centres unmarked) for UniProtKB P31645.
Resp: 300
